- measurement target: MAPK14 (human) (UniProt Q16539)
- Sequence (Q16539 whole entry, looked up): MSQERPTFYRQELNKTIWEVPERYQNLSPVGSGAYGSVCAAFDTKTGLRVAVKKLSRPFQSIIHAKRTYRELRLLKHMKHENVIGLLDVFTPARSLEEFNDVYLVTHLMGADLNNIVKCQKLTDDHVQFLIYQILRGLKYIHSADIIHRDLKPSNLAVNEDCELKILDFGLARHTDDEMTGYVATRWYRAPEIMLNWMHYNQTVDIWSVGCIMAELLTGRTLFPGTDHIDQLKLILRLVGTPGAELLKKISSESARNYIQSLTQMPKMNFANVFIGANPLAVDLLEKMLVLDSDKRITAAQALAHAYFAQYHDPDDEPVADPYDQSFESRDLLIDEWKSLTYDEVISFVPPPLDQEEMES
- method summary: Inhibition of LPS Stimulated TNF Production by U937 Cells
- run parameters: concentration not given here
measured attribute: inhibition (%)
One number for each entry, in %.

Here is how some molecules turned out for inhibition.
smiles record	inhibition, %
COc1ccc(S(=O)(=O)NCc2[nH]nc(-c3ccc(F)cc3)c2-c2ccncc2)c([N+](=O)[O-])c1	10
CC(C)COC(=O)N[C@H](C)c1[nH]nc(-c2ccc(F)cc2)c1-c1ccncc1	32
C[C@@H](NS(=O)(=O)C[C@]12CC[C@@H](CC1=O)C2(C)C)c1[nH]nc(-c2ccc(F)cc2)c1-c1ccncc1	65
CCc1ccccc1NC(=O)NCCc1[nH]nc(-c2ccc(F)cc2)c1-c1ccncc1	22
C[C@@H](NC(=O)c1ccncc1)c1[nH]nc(-c2ccc(F)cc2)c1-c1ccncc1	36
C[C@H](NS(=O)(=O)c1cc(Cl)cc(Cl)c1)c1[nH]nc(-c2ccc(F)cc2)c1-c1ccncc1	65
O=C(CCc1ccccc1)NCc1[nH]nc(-c2ccc(F)cc2)c1-c1ccncc1	21
O=S(=O)(NCc1[nH]nc(-c2ccc(F)cc2)c1-c1ccncc1)c1cccc(C(F)(F)F)c1	75

Return reported inhibition values for all items listed beneath this line.
1. O=C(NCCCc1[nH]nc(-c2ccc(F)cc2)c1-c1ccncc1)NCCc1cccnc1
2. O=C(NCc1[nH]nc(-c2ccc(F)cc2)c1-c1ccncc1)c1ccco1
3. O=S(=O)(c1ccc(Cl)cc1)N1CCC(c2[nH]nc(-c3ccc(F)cc3)c2-c2ccncc2)CC1
4. C[C@H](NS(=O)(=O)c1cccc2cccnc12)c1[nH]nc(-c2ccc(F)cc2)c1-c1ccncc1
5. C[C@H](NC(=O)c1cc(F)cc(C(F)(F)F)c1)c1[nH]nc(-c2ccc(F)cc2)c1-c1ccncc1
6. CCCNC(=O)Cn1nc(-c2ccc(F)cc2)c(-c2ccncc2)c1C

[18, 8, 25, 58, 36, 31]

----------
- measurement target: MAPK14 (human) (UniProt Q16539)
- method summary: Inhibition of LPS Stimulated TNF Production by U937 Cells
- run parameters: concentration not given here
measured attribute: inhibition (%)
Numbers only, in %.

Example entries and their recorded answers appear below.
smiles record	measurement target	unit of measurement	inhibition
Cc1cc(C)c(S(=O)(=O)N[C@H](C)c2[nH]nc(-c3ccc(F)cc3)c2-c2ccncc2)c(C)c1	MAPK14 (human) (UniProt Q16539)	%	65
COc1ccc(S(=O)(=O)NCCc2[nH]nc(-c3ccc(F)cc3)c2-c2ccncc2)cc1OC	MAPK14 (human) (UniProt Q16539)	%	17
CC(C)c1ccc(S(=O)(=O)N[C@@H](C)c2[nH]nc(-c3ccc(F)cc3)c2-c2ccncc2)cc1	MAPK14 (human) (UniProt Q16539)	%	76
C[C@@H](NS(=O)(=O)c1cc(Cl)cc(Cl)c1O)c1[nH]nc(-c2ccc(F)cc2)c1-c1ccncc1	MAPK14 (human) (UniProt Q16539)	%	71
CS(=O)(=O)N[C@H](Cc1ccccc1)c1[nH]nc(-c2ccc(F)cc2)c1-c1ccncc1	MAPK14 (human) (UniProt Q16539)	%	17
C[C@@H](NC(=O)c1ccccc1Cl)c1[nH]nc(-c2ccc(F)cc2)c1-c1ccncc1	MAPK14 (human) (UniProt Q16539)	%	87
C[C@@H](NC(=O)c1c(F)cc(F)cc1F)c1[nH]nc(-c2ccc(F)cc2)c1-c1ccncc1	MAPK14 (human) (UniProt Q16539)	%	75

// next item, inhibition requested
inhibition value, target or system MAPK14 (human) (UniProt Q16539), for O=S(=O)(NCCCc1[nH]nc(-c2ccc(F)cc2)c1-c1ccncc1)c1ccc(F)cc1 : 62
